- experimental.system: T1, extracellular domain of activin receptor type IIB (ActRIIBecd), biotinylated (Homo sapiens (Human), UniProt Q13705 27-117, amino-biotinylated with amine-PEG3-Biotin)
- T1 construct: immobilised on a streptavidin-coated sensor chip; also called biotinylated ActRIIBecd; extracellular domain of ActRIIB
- T1 sequence: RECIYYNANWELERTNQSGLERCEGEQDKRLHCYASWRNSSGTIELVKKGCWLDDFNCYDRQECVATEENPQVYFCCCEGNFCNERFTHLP
- run.description: BIAcore SPR, biotinylated ActRIIBecd on chip; SD ±16.14 nM
reported.property: pKd
Scale note: pKd = -log10(concentration in M).

Give a short answer stating reported pKd for TYPASPKPMRHSMRSCACCAGGLRNQTGTV [Clone No. 26 domain (ActRIIBecd-associated polypeptide)] .
7.40
